Task for the reader: assign each of the following compounds its reported EC50.
target: Glucagon-like peptide 1 receptor (Homo sapiens); experiment: Agonist activity at human GLP-1R expressed in HEK293 cells assessed as increase in intracellular cAMP level incubated for 30 mins by HTRF assay
Sequence (P43220 whole entry): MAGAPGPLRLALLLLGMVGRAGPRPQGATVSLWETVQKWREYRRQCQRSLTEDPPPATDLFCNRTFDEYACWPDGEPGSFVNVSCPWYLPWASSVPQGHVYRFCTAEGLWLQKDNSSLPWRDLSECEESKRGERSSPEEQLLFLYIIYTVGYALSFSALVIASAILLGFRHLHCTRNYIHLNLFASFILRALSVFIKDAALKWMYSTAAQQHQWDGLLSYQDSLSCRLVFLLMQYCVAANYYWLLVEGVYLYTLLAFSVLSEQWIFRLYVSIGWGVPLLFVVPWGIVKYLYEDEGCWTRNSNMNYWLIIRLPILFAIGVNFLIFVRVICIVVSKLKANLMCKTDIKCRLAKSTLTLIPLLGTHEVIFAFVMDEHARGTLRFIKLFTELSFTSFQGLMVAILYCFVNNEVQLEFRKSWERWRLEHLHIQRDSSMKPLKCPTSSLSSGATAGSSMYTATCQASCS
Respond with the bare value in nM.

// query // lookup EC50 | system=Glucagon-like peptide 1 receptor (Homo sapiens) | key= COc1cc(C#N)ccc1COc1cccc(-c2cc(F)c(Cc3nc4c(OC)cc(C(=O)O)cc4n3C[C@@H]3CCO3)cc2F)n1
// result 0.167

// query // lookup EC50 | system=Glucagon-like peptide 1 receptor (Homo sapiens) | key= COc1cc(C(=O)O)cc2c1nc(Cc1cc(F)c(-c3cccc(OCc4ccc(-n5cncn5)cc4)n3)cc1F)n2C[C@@H]1CCO1
// result 0.402

// query // lookup EC50 | system=Glucagon-like peptide 1 receptor (Homo sapiens) | key= COCCOc1cc(C(=O)O)cc2c1nc(Cc1cc(F)c(-c3cccc(OCc4ccc(C#N)cc4F)n3)cc1F)n2C[C@@H]1CCO1
// result 0.297

// query // lookup EC50 | system=Glucagon-like peptide 1 receptor (Homo sapiens) | key= COc1cc(C(=O)O)cc2c1nc(Cc1cc(C)c(-c3cccc(OCc4ccc(C#N)cc4F)n3)cc1F)n2C[C@@H]1CCO1
// result 0.291

// query // lookup EC50 | system=Glucagon-like peptide 1 receptor (Homo sapiens) | key= COc1cc(C(=O)O)cc2c1nc(Cc1cc(F)c(-c3cccc(OCc4ccc(C#N)cc4F)n3)cc1F)n2C[C@@H]1CCO1
// result 0.221

// query // lookup EC50 | system=Glucagon-like peptide 1 receptor (Homo sapiens) | key= COc1cc(C(=O)O)cc2c1nc(Cc1cc(F)c(-c3cccc(OCc4ccc(C#N)cc4C)n3)cc1F)n2C[C@@H]1CCO1
// result 0.3
